What cell viability was measured for each of the following?
System: P12-Ichikawa
Method Description: cell viability relative to DMSO control; higher = less cytotoxic
Test Conditions: HPLM + 10% dialyzed FBS; 48 h; 46.1 µM
Form entry: value (%) — number only.

cell viability for C=C[C@H]1CN2CCC1C[C@@H]2C(O)c1ccnc2ccc(OC)cc12 (some centres undefined) ?
103

cell viability for Cc1coc2c1C(=O)C(=O)c1c-2ccc2c1CCCC2(C)C ?
99.8

cell viability for COc1ccc(C(=O)c2c(C)n(CCN3CCOCC3)c3cc(I)ccc23)cc1 ?
9.27

cell viability for COc1cccc2c1C(=O)c1c(O)c3c(c(O)c1C2=O)C[C@@](O)(C(=O)CO)C[C@@H]3O[C@H]1C[C@H](N)[C@H](O)[C@H](C)O1 ?
11.9

cell viability for NC(=O)c1ccc(N(C(N)=O)c2c(F)cccc2F)nc1-c1ccc(F)cc1F ?
104

cell viability for Nc1ncnc2c1ncn2[C@@H]1O[C@H](CO)C[C@H]1O ?
89

cell viability for CCCCOc1c(C(=O)c2c(F)cc(C)cc2F)cnc2[nH]ncc12 ?
95.5

cell viability for CCCCCNC(=O)N1CCC(CN(Cc2ccc(Cl)cc2)Cc2ccc([N+](=O)[O-])s2)C1 (centres undefined) ?
85.6

cell viability for Oc1nc(-c2ccc(C(F)(F)F)cc2)nc2c1CSCC2 ?
94

---

Tested on: SEM cells
Method Description: cell viability relative to DMSO control; higher = less cytotoxic
Test Conditions: RPMI 5 mM glucose + 10% dialyzed FBS; 48 h; 0.19 µM
Recorded Endpoint: cell viability (%)
Form entry: value (%) — number only.

cell viability for Nc1c2c(nc3ccccc13)CCCC2 ?
123

cell viability for COc1cc[nH]c2ncc(C(=O)C(=O)N3CCN(C(=O)c4ccccc4)C[C@H]3C)c1-2 ?
102

cell viability for O=C(c1ccccc1)c1ccc2n1CCC2C(=O)O (stereo unspecified) ?
121

cell viability for CCCCCCCCCCCCCC(=O)N[C@H](CO)[C@H](O)c1ccc([N+](=O)[O-])cc1 ?
55.2

cell viability for CN1CCCN(CC1)C2=CC=C3C(=O)\C(=C/4SC5=C(C=CC=C5)N4C3=N2)C(=O)NCC6=CN=C(C)C=N6 ?
79.5

cell viability for Cc1csc(-c2nnc(Nc3ccc(Oc4ncccc4-c4ccnc(N)n4)cc3)c3ccccc23)c1 ?
34

cell viability for CC1=CC(=CC(=C1C\C2=N\CCN2)C)C(C)(C)C ?
107

cell viability for C=C[C@H]1CN2CCC1C[C@@H]2C(O)c1ccnc2ccc(OC)cc12 (stereo partly specified) ?
121

cell viability for Nc1ccc([S+](=O)([O-])Nc2ccnn2-c2ccccc2)cc1 ?
88

cell viability for Cc1cc2c(C(N)=O)cccc2n1-c1nc2c(c(NCc3ccccc3)n1)COCC2 ?
99.4

cell viability for CCCCN(CCCC)CC(O)c1cc(Cl)cc2c1-c1ccc(Cl)cc1/C2=C/c1ccc(Cl)cc1 (stereo unspecified) ?
94.4

cell viability for CCCCOCCOc1nc(-c2ccc(C(=O)O)c(F)c2)sc1C ?
111

cell viability for CCCCCNC(=O)N1CCC(CN(Cc2ccc(Cl)cc2)Cc2ccc([N+](=O)[O-])s2)C1 (stereo unspecified) ?
128

cell viability for COc1cccc2c1C(=O)c1c(O)c3c(c(O)c1C2=O)C[C@@](O)(C(=O)CO)C[C@@H]3O[C@H]1C[C@H](N)[C@H](O)[C@H](C)O1 ?
69.9

cell viability for CCOC(=O)\C1=C\[C@]2(CC)CCCN3CCC4=C([C@H]23)[N]1C5=C4C=CC=C5 ?
124

cell viability for Cc1coc2c1C(=O)C(=O)c1c-2ccc2c1CCCC2(C)C ?
88

cell viability for COc1ccc2c(c1)CN(C)CC2c1ccc(Cl)c(Cl)c1 (stereo unspecified) ?
168

cell viability for Cc1ccc([S+](=O)([O-])OCC(=O)Nc2ccc(C(=O)O)c(O)c2)cc1 ?
140

cell viability for COc1cc2c(cc1OC)CN(CCc1ccc(NC(=O)c3cc(OC)c(OC)cc3NC(=O)c3cnc4ccccc4c3)cc1)CC2 ?
123

cell viability for O=C(O)C(=O)c1cn(Cc2ccccc2)c2ccc(-c3ccc(OC(F)(F)F)cc3)cc12 ?
84.2

cell viability for Oc1nc(-c2ccc(C(F)(F)F)cc2)nc2c1CSCC2 ?
114

---

Test system: NOMO1
Method Description: cell viability relative to DMSO control; higher = less cytotoxic
Test Conditions: RPMI 5 mM glucose + 10% FBS; 48 h; 46.1 µM
What cell viability was measured for each of the following?
Report the figure along with its unit, number first.

Record Cc1cc2c(C(N)=O)cccc2n1-c1nc2c(c(NCc3ccccc3)n1)COCC2 : what is its cell viability with NOMO1?
3.91%

Record CC(=O)Oc1ccccc1C(=O)Nc1ncc([N+](=O)[O-])s1 : what is its cell viability with NOMO1?
96.9%

Record Cc1coc2c1C(=O)C(=O)c1c-2ccc2c1CCCC2(C)C : what is its cell viability with NOMO1?
90.8%

Record COc1cc[nH]c2ncc(C(=O)C(=O)N3CCN(C(=O)c4ccccc4)C[C@H]3C)c1-2 : what is its cell viability with NOMO1?
102%

Record COC1=CC=C(C(=C1)OC(C)C)C/2=N/[C@@H]([C@@H](N2C(=O)N3CCNC(=O)C3)C4=CC=C(Cl)C=C4)C5=CC=C(Cl)C=C5 : what is its cell viability with NOMO1?
7.76%

Record Cc1cccc(Nc2ccncc2[S+](=O)([O-])NC(=O)NC(C)C)c1 : what is its cell viability with NOMO1?
72.4%

Record CCCCOc1c(C(=O)c2c(F)cc(C)cc2F)cnc2[nH]ncc12 : what is its cell viability with NOMO1?
79.1%

Record CC(C(=O)O)c1ccc2c(c1)CC(=O)c1ccccc1S2 (centres undefined) : what is its cell viability with NOMO1?
21.2%

Record O=C(O)c1cc(/N=N/c2ccc([S+](=O)([O-])Nc3ccccn3)cc2)ccc1O : what is its cell viability with NOMO1?
97.6%

---

Tested on: SEM cells
Method Description: cell viability relative to DMSO control; higher = less cytotoxic
Test Conditions: RPMI 5 mM glucose + 10% dialyzed FBS; 48 h; 0.569 µM
Recorded Endpoint: cell viability (%)
Form entry: value (%) — number only.

cell viability for Nc1ncnc2c1ncn2[C@@H]1O[C@H](CO)C[C@H]1O ?
95.6

cell viability for Cc1cc2c(C(N)=O)cccc2n1-c1nc2c(c(NCc3ccccc3)n1)COCC2 ?
95.8

cell viability for NC(=O)c1ccc(N(C(N)=O)c2c(F)cccc2F)nc1-c1ccc(F)cc1F ?
88.3

cell viability for CC12CC3CC(C)(C1)CC(N)(C3)C2 ?
110

cell viability for CCOC(=O)\C1=C\[C@]2(CC)CCCN3CCC4=C([C@H]23)[N]1C5=C4C=CC=C5 ?
126

cell viability for COc1cccc2c1C(=O)c1c(O)c3c(c(O)c1C2=O)C[C@@](O)(C(=O)CO)C[C@@H]3O[C@H]1C[C@H](N)[C@H](O)[C@H](C)O1 ?
40.1

cell viability for CC(C)OC(=O)[C@H](C)N[P@](=O)(OC[C@H]1O[C@@H](N2\C=C/C(=O)NC2=O)[C@](C)(F)[C@@H]1O)OC3=CC=CC=C3 ?
107

cell viability for O=C(O)c1cc(/N=N/c2ccc([S+](=O)([O-])Nc3ccccn3)cc2)ccc1O ?
97.5

cell viability for COc1cc2c(cc1OC)CN(CCc1ccc(NC(=O)c3cc(OC)c(OC)cc3NC(=O)c3cnc4ccccc4c3)cc1)CC2 ?
121

cell viability for C[C@]12CC[C@H]3[C@@H](CCC4=CC(=O)CC[C@@H]43)[C@@H]1CC[C@@H]2OC(=O)CCc1ccccc1 ?
104

cell viability for CCCCN(CCCC)CC(O)c1cc(Cl)cc2c1-c1ccc(Cl)cc1/C2=C/c1ccc(Cl)cc1 (stereo not given) ?
94.5

cell viability for COC(=O)C\1=C(C)\N\C(=C(/C1C2=CC=CC3=NON=C23)C(=O)OC(C)C)C (stereo not given) ?
114

cell viability for CCCCCCCCCCCCCC(=O)N[C@H](CO)[C@H](O)c1ccc([N+](=O)[O-])cc1 ?
83

cell viability for Cc1ccccc1C(=O)Nc1ccc(C(=O)N2CCCC(O)c3cc(Cl)ccc32)c(C)c1 (stereo not given) ?
149

cell viability for NC[C@H]1O[C@H](O[C@@H]2[C@H](O)[C@@H](O[C@H]3O[C@H](CO)[C@@H](O)[C@H](N)[C@H]3O)[C@H](N)C[C@@H]2N)[C@H](O)[C@@H](O)[C@@H]1O ?
107

---

What cell viability was measured for each of the following?
Tested on: P12-Ichikawa
Method Description: cell viability relative to DMSO control; higher = less cytotoxic
Test Conditions: HPLM + 10% dialyzed FBS; 48 h; 15.4 µM

cell viability for O=P(O)(O)C(O)(Cn1ccnc1)P(=O)(O)O ?
112%

cell viability for Cc1cccc(Nc2ccncc2[S+](=O)([O-])NC(=O)NC(C)C)c1 ?
85.8%

cell viability for CC#CCn1c(N2CCC[C@@H](N)C2)nc2c1c(=O)n(Cc1nc(C)c3ccccc3n1)c(=O)n2C ?
99.7%

cell viability for OCC(O)C(O)C(O)CO (configuration not stated) ?
88.7%

cell viability for CC(=O)Oc1ccccc1C(=O)Nc1ncc([N+](=O)[O-])s1 ?
97.3%

cell viability for CC1=CC(=CC(=C1C\C2=N\CCN2)C)C(C)(C)C ?
104%

cell viability for NC(=O)c1ccc(N(C(N)=O)c2c(F)cccc2F)nc1-c1ccc(F)cc1F ?
95.3%
